Reference for the values: PubChem BioAssay (NCI)

tested on: MCF7 breast; assay: NCI-60 one-dose screen, 48 h (100 = growth as untreated, 0 = no growth, -100 = all killed); conditions: 10 µM unless noted
This is part of a sample that, as a whole, favours compounds with a hit. Of some 83,000 tested, about 20% had one in any assay.
# if value of growth reaches 90%, tag true (1); if it stays below, tag false (0)

The examples below pair each entry with its known result.
Cc1cccc(Cl)c1N ... true (1)
COc1ccc(COC=O)cc1 ... true (1)
CCOC(=O)c1ccc(C(=N)N)cc1 ... true (1)
C/C(CC(C)C)=N/NC(N)=S ... false (0)
O=C1c2ccccc2C(c2ccccc2)C1c1ccccc1 (stereo not given) ... false (0)
COC(=O)c1nc(=S)[nH]c(C(=O)OC)c1C(=O)c1ccc(OC)cc1 ... true (1)

Given ON=C(C1CCCCC1)C1CCCCC1 , state whether its growth is at least 90%.
true (1)

Given CCCC(=O)Oc1ccc2ccccc2c1 , state whether its growth is at least 90%.
true (1)

Given CCNC1=CC(=O)c2ncccc2C1=O , state whether its growth is at least 90%.
false (0)

Given CC(=O)c1cc2ccccc2o1 , state whether its growth is at least 90%.
true (1)

Given OCCS , state whether its growth is at least 90%.
true (1)

* * *

test system: MDA-MB-435 melanoma; test: NCI-60 one-dose screen, 48 h (100 = growth as untreated, 0 = no growth, -100 = all killed); conditions: 10 µM unless noted
The panel holds about 83,000 compounds, 20% with a hit somewhere; the sample as a whole holds those more often.
Measured growth, listed per entry for reference.
Record the value in %, omitting the unit from your answer.

CC(C)=NOC(C)C(=O)O (stereo not drawn) ... 97.2
O=C(O)Cc1cc(=O)[nH]n(-c2ccccc2)c1=O ... 108
CCCCCCC(C)CC1=C(O)c2ccccc2C(=O)C1=O (stereo not drawn) ... 42.7
O=c1[nH]c(=S)[nH]n1C(=S)n1[nH]c(=S)[nH]c1=O ... 110
S=c1nn[nH]n1C1CCCCC1 ... 102
Cc1ccc(NC(=S)N/C=C(\c2ccccc2)S(=O)Cc2ccccc2)c(C)c1 (stereo not drawn) ... 97.9
COc1cc(C2c3cc4c(cc3C(OC(=O)C[n+]3ccccc3)C3COC(=O)C23)OCO4)cc(OC)c1OC (stereo not drawn) ... -8.6
COc1ccc(CCl)c(C)c1OC ... 108
COc1ccc(COC=O)cc1 ... 113
OCCCc1ccccc1 ... 108

I'd like to know its growth. The compound in question is CN1C2C=CC(=O)C1C1C(=O)N(c3ccccc3)C(=O)C12 (stereo not drawn)
80.5

I'd like to know its growth. The compound in question is CC(=O)c1cccc(OC(=O)c2ccccc2)c1
117

I'd like to know its growth. The compound in question is ON=C(C1CCCCC1)C1CCCCC1
103

* * *

test system: SNB-75 CNS; assay: NCI-60 one-dose screen, 48 h (100 = growth as untreated, 0 = no growth, -100 = all killed); settings: 10 µM unless noted
This is part of a sample that, as a whole, favours compounds with a hit. Of some 83,000 tested, about 20% had one in any assay.
Measured growth, listed per entry for reference.
Record the value in %, omitting the unit from your answer.

I'd like to know its growth. The molecule in question is NNc1ncnc2cccc(Cl)c12
101

I'd like to know its growth. The molecule in question is COc1ccc2oc3c(ccc[n+]3C)c(=O)c2c1
100

I'd like to know its growth. The molecule in question is O=[N+]([O-])c1cccc(N=Cc2ccccc2)c1
96.7

I'd like to know its growth. The molecule in question is CCOC(=N)c1ccc(C(=N)OCC)cc1
103

I'd like to know its growth. The molecule in question is CCOC(C)=N
93.2

* * *

tested on: LOX IMVI melanoma; test: NCI-60 one-dose screen, 48 h (100 = growth as untreated, 0 = no growth, -100 = all killed); conditions: 10 µM unless noted
This is part of a sample that, as a whole, favours compounds with a hit. Of some 83,000 tested, about 20% had one in any assay.
parameter: growth (%)
Record the value in %, omitting the unit from your answer.

N=c1sc2ccccc2n1CC(=O)O ... 98.7

I'd like to know its growth. The molecule in question is COCCCNC1=C(C#N)C(=O)NC(c2cccs2)S1 (stereo not drawn)
105

I'd like to know its growth. The molecule in question is CCN(CC)C(=S)SCCO
97

* * *

tested on: ACHN renal; assay: NCI-60 one-dose screen, 48 h (100 = growth as untreated, 0 = no growth, -100 = all killed); conditions: 10 µM unless noted
About 83,000 compounds went through this panel and 20% of them were active in at least one assay; those are over-represented in the sample as a whole. Activity calls are given as the source filed them. The calls were made as follows: active = growth percent below 10; inactive = the rest.
Measured growth, listed per entry for reference.

CCN(C)c1ccccc1 ... 103% (inactive)
CC(C)(C)C1CCC(=NO)CC1 (stereo unspecified) ... 105% (inactive)
c1ccc2c[n+](Cc3ccc4ccccc4n3)ccc2c1 ... 99.8% (inactive)
CCc1ccc(OC(=O)CCl)cc1 ... 102% (inactive)
Cc1cc(-c2ccc(N=Nc3c(C)nn(-c4ccc(S(=O)(=O)O)cc4)c3O)c(C)c2)ccc1N=Nc1ccc(O)c(C(=O)O)c1 ... 98% (inactive)

Give recorded growth with ACHN renal for the following compound: O=c1[nH]c(=O)c2[nH]c(=O)[nH]c2[nH]1
101% (inactive)

Give recorded growth with ACHN renal for the following compound: CCN(CC)CCO/N=C1\CC(c2ccc(OC)c(OC)c2)Oc2ccccc21 (stereo unspecified)
101% (inactive)

Give recorded growth with ACHN renal for the following compound: CCOP(=O)(OCC)/C(C#N)=C/c1c(C)[nH]c2ccccc12
102% (inactive)

* * *

tested on: UO-31 renal; experiment: NCI-60 one-dose screen, 48 h; conditions: 10 µM unless noted
About 83,000 compounds went through this panel and 20% of them were active in at least one assay; those are over-represented in the sample as a whole. Activity calls are given as the source filed them. How the source made its calls: active means growth percent below 10; inactive means the rest.
Outcome (select one): 1 for active, 0 for inactive

The examples below pair each entry with its known result.
O=P(O)(O)OC1C(OP(=O)(O)O)C(OP(=O)(O)O)C(OP(=O)(O)O)C(OP(=O)(O)O)C1OP(=O)(O)O.[Cu+2] (configuration not stated) ... 0
O=[N+]([O-])c1ccc(N/N=C/C2CCCCCC2)c([N+](=O)[O-])c1 ... 0

Hi, do you know how CCNCc1ccccc1 came out in this test?
0

Hi, do you know how O=C(c1ccc(Cl)cc1)C1C(c2ccccc2)C1[N+](=O)[O-] (configuration not stated) came out in this test?
0

* * *

test system: ACHN renal; assay: NCI-60 one-dose screen, 48 h (100 = growth as untreated, 0 = no growth, -100 = all killed); conditions: 10 µM unless noted
About 83,000 compounds went through this panel and 20% of them were active in at least one assay; those are over-represented in the sample as a whole.
Measured growth, listed per entry for reference.
Record the value in %, omitting the unit from your answer.

COc1ccc(S(=O)(=O)c2ccc(F)cc2)cc1 ... 103
C#CCOC(=O)C(N)CS (stereo not given) ... 98.8
CC1CCC(=O)N1c1ccc(N)cc1 (stereo not given) ... 104
CC(=O)c1cccc(OC(=O)c2ccccc2)c1 ... 109

Give recorded growth with ACHN renal for the following molecule: C/C(=C\c1ccccc1)C(O)C(=O)c1nc2ccc([N+](=O)[O-])cc2[nH]c1=O (stereo not given)
81

Give recorded growth with ACHN renal for the following molecule: COCCCNC1=C(C#N)C(=O)NC(c2cccs2)S1 (stereo not given)
97.5

Give recorded growth with ACHN renal for the following molecule: CC1(C)CC(=O)NC1=O
98.2

Give recorded growth with ACHN renal for the following molecule: CCCCNC(=O)c1ccccc1C
104

Give recorded growth with ACHN renal for the following molecule: O=C1C=CC(n2cc(F)c(=O)[nH]c2=O)O1 (stereo not given)
56.5

Give recorded growth with ACHN renal for the following molecule: C/C=C(/C(=O)NC(N)=O)C(C)C
110

* * *

tested on: MOLT-4 leukemia; assay: NCI-60 one-dose screen, 48 h (100 = growth as untreated, 0 = no growth, -100 = all killed); details: 10 µM unless noted
Compounds without any hit were thinned out: in the full panel of roughly 83,000, 20% have a hit.
parameter: growth (%)
Record the value in %, omitting the unit from your answer.

Solved cases (3 shown):
Cn1c(-c2ccccc2)cc(=O)cc1-c1ccccc1 ... 81.4
COCCNC(C)=O ... 119
CCC(C)(O)CCC(C)(O)CC (stereo not drawn) ... 102

I'd like to know its growth. The compound in question is COc1cc2c(cc1O)C(=O)CCCC2
83.9

I'd like to know its growth. The compound in question is CCOC(=O)c1ccc(C(=N)N)cc1
109

I'd like to know its growth. The compound in question is COC(=O)c1cc(C(=O)OC)cc([N+](=O)[O-])c1
71

I'd like to know its growth. The compound in question is O=C(c1ccncc1)c1c(Cc2ccccc2)ccc2ccccc12
94.6

I'd like to know its growth. The compound in question is Clc1ccc2sc(-c3ccccc3)nc2c1
92.3

I'd like to know its growth. The compound in question is COc1ccc(S(=O)(=O)c2ccc(F)cc2)cc1
92.3
